Molecular target: Histone-lysine N-methyltransferase EHMT2 (Homo sapiens)
Experiment: qHTS Assay for Inhibitors of Histone Lysine Methyltransferase G9a; further: nearly all actives have a fitted effect of over 75% in size
Settings: G9a H3K9 monomethylation, AlphaScreen, 2 h; series mostly up to 59 µM
Screen size: about 350,000 compounds; about 31,000 (8.9%) were called active. Inconclusive results (about 15%) are left out. The call rests on the fitted dose curve; in most records, active means well fitted inhibition curve with a large enough effect; inconclusive means small, poorly fitted or top-dose-only effect; inactive means no such curve, though single readings can be large or run the other way. This excerpt belongs to a sample that is enriched for actives.
Write down one outcome, taken from 1 (active), -1 (inactive)

Recorded call for "O=C(c1ccccn1)c1ncc(C(F)(F)F)cc1Cl" ?
-1

Recorded call for "O=C(NCCOCc1ccc(Cl)cc1)c1ncn[nH]1" ?
-1

Recorded call for "CC(C)C(=O)Nc1ccc(C(=O)NNC(=O)c2cccs2)cc1" ?
-1

Recorded call for CN(C)c1ccc(C(CC(=O)O)C(=O)O)cc1 (centres undefined) ?
1

Recorded call for "COc1ccc(Cl)cc1CSc1ncn[nH]1" ?
-1

Recorded call for "NS(=O)(=O)c1ccc(NC(=S)NC(=O)c2cccc(Br)c2)cc1" ?
-1

Recorded call for "O=c1[nH]oc(O)c1-c1ncc(C(F)(F)F)cc1Cl" ?
1

Recorded call for "NS(=O)(=O)c1ccc(NC(=S)NC(=O)c2cccnc2)cc1" ?
1

Recorded call for "CC(=O)NC(=S)Nc1ccc(NC(=O)c2cccnc2)cc1" ?
-1

###

Biological target: Histone-lysine N-methyltransferase EHMT2 (Homo sapiens)
Assay: qHTS Assay for Inhibitors of Histone Lysine Methyltransferase G9a; further: nearly all actives have a fitted effect of over 75% in size
Conditions: G9a H3K9 monomethylation, AlphaScreen, 2 h; series mostly up to 59 µM
About 31,000 (8.9%) of roughly 350,000 compounds were called active. Not shown: some 15% with an inconclusive outcome. The call rests on the fitted dose curve; in most records, active means well fitted inhibition curve with a large enough effect; inconclusive means small, poorly fitted or top-dose-only effect; inactive means no such curve, though single readings can be large or run the other way. This excerpt belongs to a sample that is enriched for actives.
Write down one outcome, taken from YES = active, NO = inactive

Recorded call for "Cc1ccc2nc(-c3ccc(O)cc3)c(Nc3ccc4c(c3)OCO4)n2c1" ?
YES

Recorded call for "Cc1cccc2nc(-c3ccc(Cl)s3)c(Nc3ccc4c(c3)OCCO4)n12" ?
YES

Recorded call for "Cc1ccn2c(Nc3ccc4c(c3)OCCO4)c(-c3ccc(C)s3)nc2c1" ?
NO

Recorded call for CCC(C)N(C(=O)Cn1nc(C)c([N+](=O)[O-])c1C)C1CCS(=O)(=O)C1 (centres undefined) ?
NO

###

Target: Histone-lysine N-methyltransferase EHMT2 (Homo sapiens)
Test: qHTS Assay for Inhibitors of Histone Lysine Methyltransferase G9a; further: nearly all actives have a fitted effect of over 75% in size
Conditions: G9a H3K9 monomethylation, AlphaScreen, 2 h; series mostly up to 59 µM
Among all 350,000 compounds or so, about 31,000 (8.9%) were called active. Inconclusive results (about 15%) are left out. Calls follow the shape of the dose curve; as a rule, active = well fitted inhibition curve with a large enough effect; inconclusive = small, poorly fitted or top-dose-only effect; inactive = no such curve, though single readings can be large or run the other way. The full list was thinned out, with actives kept by preference.
Write down one outcome, taken from 1 = active, -1 = inactive

Recorded call for "COc1ccc(S(=O)(=O)NCCc2c[nH]c3ccccc23)cc1OC" ?
-1

Recorded call for "c1ccc(-n2nnnc2-c2cccnc2)cc1" ?
-1

Recorded call for COc1cccc(NC(=O)C(Sc2nnnn2C)c2ccccc2)c1 (centres undefined) ?
-1

Recorded call for "COc1ccccc1CC(=O)NCCc1c[nH]c2ccccc12" ?
-1

Recorded call for "Cc1cc(C(=O)N/N=C\C(Br)=C\c2ccccc2)c(C)o1" ?
-1

Recorded call for "S=c1[nH]nc(-c2cccnc2)n1/N=C/C(Cl)=C\c1ccccc1" ?
1

Recorded call for "O=c1c2ccccc2ncn1/N=C/c1ccccc1" ?
-1

Recorded call for "COc1cccc(CNCCc2c[nH]c3ccccc23)c1OCc1ccccc1F" ?
1

Recorded call for "COc1ccc(C(=O)Nc2ccc(-n3nncc3-c3ccccc3)cc2)cc1OC" ?
-1
